Target: T1, 4H797-bA
T1 chain: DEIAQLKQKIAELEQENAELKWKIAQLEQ
Experiment: two-hybrid library CCNG1;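 also: natural log of median RNA to DNA barcode read ratio; higher means stronger binding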
Rule: measured interaction score below -0.6 gets y; anything equal to or greater than -0.6 gets n.

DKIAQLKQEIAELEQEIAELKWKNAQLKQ [4H2576-bA]    n
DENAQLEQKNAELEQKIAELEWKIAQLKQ [4H1446-bA]    y
DEIAQLEQKIAELKQKNAELEWEIAQLKQ [4H370-bA]    n
DEIAQLEQKNAELKQEIAELKWKIAQLKQ [4H462-bA]    n
DKNAQLKQKNAELKQKIAELKWEIAQLEQ [4H4073-bA]    y
DEIAQLKQENAELEQKIAELKWKNAQLEQ [4H687-bA]    y
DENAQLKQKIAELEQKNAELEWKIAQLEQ [4H1845-bA]    n
DEIAQLEQEIAELKQEIAELEWKNAQLKQ [4H72-bA]    y
DEIAQLEQENAELEQKIAELKWEIAQLKQ [4H170-bA]    n
DKNAQLKQEIAELEQENAELEWKIAQLKQ [4H3606-bA]    y
DEIAQLKQKIAELEQEIAELKWENAQLKQ [4H780-bA]    y
DKNAQLEQEIAELKQKNAELEWKIAQLEQ [4H3189-bA]    y
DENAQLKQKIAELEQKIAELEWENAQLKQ [4H1828-bA]    n
DKIAQLKQEIAELEQENAELKWEIAQLKQ [4H2586-bA]    n
DKIAQLKQENAELEQEIAELKWKIAQLKQ [4H2702-bA]    y
DEIAQLKQENAELKQKNAELEWEIAQLKQ [4H754-bA]    n
DEIAQLKQENAELKQEIAELKWKIAQLEQ [4H717-bA]    y
DKNAQLKQENAELKQEIAELEWKIAQLKQ [4H3782-bA]    n
DKNAQLKQKIAELEQEIAELEWENAQLEQ [4H3843-bA]    y
DENAQLEQKIAELEQKIAELKWKNAQLKQ [4H1328-bA]    y
DEIAQLEQKNAELKQEIAELEWKIAQLKQ [4H454-bA]    y
